Molecular target: hERG potassium channels (Homo sapiens (Human))
Sequence (Q12809 whole entry): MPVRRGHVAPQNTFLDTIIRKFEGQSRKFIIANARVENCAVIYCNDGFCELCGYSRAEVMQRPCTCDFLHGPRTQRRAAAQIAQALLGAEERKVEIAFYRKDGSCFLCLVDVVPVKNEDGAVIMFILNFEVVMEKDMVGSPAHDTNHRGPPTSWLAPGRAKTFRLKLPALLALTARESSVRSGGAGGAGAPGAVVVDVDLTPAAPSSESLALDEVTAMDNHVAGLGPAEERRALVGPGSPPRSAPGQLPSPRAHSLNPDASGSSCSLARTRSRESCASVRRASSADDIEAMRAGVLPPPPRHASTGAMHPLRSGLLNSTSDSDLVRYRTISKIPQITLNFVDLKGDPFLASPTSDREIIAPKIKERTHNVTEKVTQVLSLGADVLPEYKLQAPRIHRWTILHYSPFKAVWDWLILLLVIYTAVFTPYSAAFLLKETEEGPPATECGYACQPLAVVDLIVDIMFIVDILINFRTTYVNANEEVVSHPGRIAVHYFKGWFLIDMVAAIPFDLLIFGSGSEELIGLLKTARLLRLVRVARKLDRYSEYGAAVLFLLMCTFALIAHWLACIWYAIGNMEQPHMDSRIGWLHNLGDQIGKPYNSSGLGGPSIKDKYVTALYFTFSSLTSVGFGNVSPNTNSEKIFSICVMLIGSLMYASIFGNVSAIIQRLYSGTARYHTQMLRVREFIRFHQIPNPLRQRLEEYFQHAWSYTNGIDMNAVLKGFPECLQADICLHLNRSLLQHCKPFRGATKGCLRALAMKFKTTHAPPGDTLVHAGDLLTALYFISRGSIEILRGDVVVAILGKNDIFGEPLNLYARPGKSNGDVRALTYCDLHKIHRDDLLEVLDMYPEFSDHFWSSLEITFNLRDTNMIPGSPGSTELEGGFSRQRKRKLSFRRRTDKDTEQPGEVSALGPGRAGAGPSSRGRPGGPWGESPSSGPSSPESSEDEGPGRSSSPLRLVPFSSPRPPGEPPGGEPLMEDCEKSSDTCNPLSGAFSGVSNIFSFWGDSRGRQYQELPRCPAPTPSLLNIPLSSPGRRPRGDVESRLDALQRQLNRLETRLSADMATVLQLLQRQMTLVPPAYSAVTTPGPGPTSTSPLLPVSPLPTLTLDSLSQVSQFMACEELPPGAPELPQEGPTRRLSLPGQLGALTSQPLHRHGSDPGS
Assay: in vitro inhibitory effect of hERG, whole-cell patch clamp
Type: cell-based
Details: whole-cell recording, room temperature
Record form. Attribute: IC50. Fill in for each entry.

Record COc1cc2nccc(Oc3c(F)cc(NC(=O)NC4CC4)c(Cl)c3F)c2cc1C(=O)NCCF [IIIb-06] . Reported IC50: 18.7 µM

For reference, reported IC50 for N#CCCOc1cc2nccc(Oc3c(F)cc(NC(=O)NC4CC4)c(Cl)c3F)c2cc1C(N)=O [IIIb-65] stands at > 30 µM

Value of IC50 reported for the molecule COc1cc2nccc(Oc3c(F)cc(NC(=O)NC4CC4)c(Cl)c3F)c2cc1C(=O)NCCC#N [IIIb-50] is > 30 µM

IC50 for NC(=O)c1cc2c(Oc3c(F)cc(NC(=O)NC4CC4)c(Cl)c3F)ccnc2cc1OCC1(N)CC1 [IIIb-61] is > 30 µM

Entry under test: NC(=O)c1cc2c(Oc3c(F)cc(NC(=O)NC4CC4)c(Cl)c3F)ccnc2cc1OCCO [IIIb-60] . Its IC50 was > 30 µM

Lab note: N#CCOc1cc2nccc(Oc3c(F)cc(NC(=O)NC4CC4)c(Cl)c3F)c2cc1C(N)=O [IIIb-58] gave IC50 of > 30 µM

IC50 measured on NC(=O)c1cc2c(Oc3c(F)cc(NC(=O)NC4CC4)c(Cl)c3F)ccnc2cc1OCC(F)(F)F [IIIb-57] = > 30 µM

Data point: NC(=O)c1cc2c(Oc3c(F)cc(NC(=O)NC4CC4)c(Cl)c3F)ccnc2cc1OCC(F)F [IIIb-56] ; IC50 = > 30 µM

The molecule listed as NC(=O)c1cc2c(Oc3c(F)cc(NC(=O)NC4CC4)c(Cl)c3F)ccnc2cc1OCCF [IIIb-55] shows IC50 equal to > 30 µM

// IC50 value for COc1cc2nccc(Oc3c(F)cc(NC(=O)NC4CC4)c(Cl)c3F)c2cc1C(=O)NCC#N [IIIb-45] : > 30 µM

The value of IC50 measured for the molecule CNC(=O)c1cc(Oc2ccc(NC(=O)Nc3ccc(Cl)c(C(F)(F)F)c3)c(F)c2)ccn1 [Regorafenib, regorafenib, reference compound] turned out to be 27 µM

Record summary for CNC(=O)c1cc(Oc2ccc(NC(=O)Nc3ccc(Cl)c(C(F)(F)F)c3)cc2)ccn1 [Sorafenib, sorafenib, reference compound] : reported IC50 = > 10 µM

Given item COc1cc2nccc(Oc3c(F)cc(NC(=O)NC4CC4)c(Cl)c3F)c2cc1C(=O)NCC(F)F [IIIb-08] , the value recorded as its IC50 is > 30 µM

// sample CNC(=O)c1cc2c(Oc3c(F)cc(NC(=O)NC4CC4)c(Cl)c3F)ccnc2cc1OC [IIIb-01] , its IC50 was > 30 µM

So for COc1cc2nccc(Oc3c(F)cc(NC(=O)NC4CC4)c(Cl)c3F)c2cc1C(=O)NCC(F)(F)F [IIIb-09] , the logged IC50 turned out to be > 30 µM

###

pIC50: −log10 of the molar value.
Hi there, I'd appreciate the recorded pIC50 for every entry that follows.

// returns pIC50 for N#CCOc1cc2nccc(Oc3c(F)cc(NC(=O)NC4CC4)c(Cl)c3F)c2cc1C(N)=O [IIIb-58] with UniProt:P21802; value = > 7.30

Tested on UniProt:P21802, the item NC(=O)c1cc2c(Oc3c(F)cc(NC(=O)NC4CC4)c(Cl)c3F)ccnc2cc1OCCF [IIIb-55] showed pIC50 equal to > 7.30

The measured pIC50 that COc1cc2nccc(Oc3c(F)cc(NC(=O)NC4CC4)c(Cl)c3F)c2cc1C(=O)NCC(F)F [IIIb-08] showed for UniProt:P21802 is > 7.30

Lab note: compound NC(=O)c1cc2c(Oc3c(F)cc(NC(=O)NC4CC4)c(Cl)c3F)ccnc2cc1OCCO [IIIb-60] tested on UniProt:P21802; recorded pIC50 was > 7.30

Log: UniProt:P21802, compound NC(=O)c1cc2c(Oc3c(F)cc(NC(=O)NC4CC4)c(Cl)c3F)ccnc2cc1OCC1(N)CC1 [IIIb-61] , pIC50 = > 7.30

Given the compound NC(=O)c1cc2c(Oc3c(F)cc(NC(=O)NC4CC4)c(Cl)c3F)ccnc2cc1OCC(F)(F)F [IIIb-57] and test system UniProt:P21802, the measured pIC50 is > 7.30

# NC(=O)c1cc2c(Oc3c(F)cc(NC(=O)NC4CC4)c(Cl)c3F)ccnc2cc1OCC(F)F [IIIb-56] with UniProt:P21802: pIC50 is > 7.30

I looked up COc1cc2nccc(Oc3c(F)cc(NC(=O)NC4CC4)c(Cl)c3F)c2cc1C(=O)NCC(F)(F)F [IIIb-09] and its pIC50 for UniProt:P21802 was 7.00 to 7.30

For COc1cc2nccc(Oc3c(F)cc(NC(=O)NC4CC4)c(Cl)c3F)c2cc1C(=O)NCC#N [IIIb-45] on UniProt:P21802, measured pIC50 was > 7.30

Tested system UniProt:P21802; pIC50 recorded for COc1cc2nccc(Oc3c(F)cc(NC(=O)NC4CC4)c(Cl)c3F)c2cc1C(=O)NCCC#N [IIIb-50] was > 7.30

Result for N#CCCOc1cc2nccc(Oc3c(F)cc(NC(=O)NC4CC4)c(Cl)c3F)c2cc1C(N)=O [IIIb-65] , tested on UniProt:P21802, pIC50: > 7.30

Lab entry: UniProt:P21802 assay, compound COc1cc2nccc(Oc3ccc(NC(=O)NC4CC4)c(Cl)c3)c2cc1C(N)=O [Lenvatinib, lenvatinib, reference compound] , pIC50 = 7.00 to 7.30

The observed pIC50 for COc1cc2nccc(Oc3c(F)cc(NC(=O)NC4CC4)c(Cl)c3F)c2cc1C(=O)NC[C@@H](O)CO [IIIb-21] when tested with UniProt:P21802 stands at 7.00 to 7.30

###

pIC50: −log10 of the molar value.
Below are pIC50 values recorded for VEGFR1 (FLT1) (Homo sapiens (Human), UniProt P17948).

Summary for this compound, `COc1cc2nccc(Oc3c(F)cc(NC(=O)NC4CC4)c(Cl)c3F)c2cc1C(=O)NCC(F)(F)F` : pIC50 is 8.00 to 8.30

The compound listed as `COc1cc2nccc(Oc3c(F)cc(NC(=O)NC4CC4)c(Cl)c3F)c2cc1C(=O)NCC(F)F` shows pIC50 equal to > 8.30

Form: compound = `COc1cc2nccc(Oc3c(F)cc(NC(=O)NC4CC4)c(Cl)c3F)c2cc1C(=O)NCCC#N` ; pIC50 = > 8.30

Short answer for `N#CCOc1cc2nccc(Oc3c(F)cc(NC(=O)NC4CC4)c(Cl)c3F)c2cc1C(N)=O` : pIC50 was > 8.30

###

System: pancreatic cancer cell line (BXPC3)
Experiment: tumor cell proliferation inhibition (CTG), pancreatic cancer cell line
Assay type: cell-based
Settings: Homo sapiens, BXPC-3, 72 hours
metric_name: IC50

Record COc1cc2nccc(Oc3c(F)cc(NC(=O)NC4CC4)c(Cl)c3F)c2cc1C(=O)NCCF [IIIb-06] has pancreatic cancer cell line (BXPC3) IC50 equal to > 10 µM

NC(=O)c1cc2c(Oc3c(F)cc(NC(=O)NC4CC4)c(Cl)c3F)ccnc2cc1OCCF [IIIb-55] on pancreatic cancer cell line (BXPC3) gives IC50 = < 5 µM

Hey, pancreatic cancer cell line (BXPC3) data for COc1cc2nccc(Oc3c(F)cc(NC(=O)NC4CC4)c(Cl)c3F)c2cc1C(=O)NCCN(C)C [IIIb-10] : IC50 came out at > 10 µM

Per the reported pancreatic cancer cell line (BXPC3) data, CN(C)CCOc1cc2nccc(Oc3c(F)cc(NC(=O)NC4CC4)c(Cl)c3F)c2cc1C(N)=O [IIIb-59] has IC50 of > 10 µM

Here COc1cc2nccc(Oc3c(F)cc(NC(=O)NC4CC4)c(Cl)c3F)c2cc1C(=O)NCCN [IIIb-51] was tested on pancreatic cancer cell line (BXPC3), and its IC50 came to > 10 µM

With pancreatic cancer cell line (BXPC3) as the test system, COc1cc2nccc(Oc3c(F)cc(NC(=O)NC4CC4)c(Cl)c3F)c2cc1C#N [IIIb-29] showed IC50 of > 10 µM

Fill in: pancreatic cancer cell line (BXPC3) IC50 for N#CCCOc1cc2nccc(Oc3c(F)cc(NC(=O)NC4CC4)c(Cl)c3F)c2cc1C(N)=O [IIIb-65] = < 5 µM

Record for COCCNC(=O)c1cc2c(Oc3c(F)cc(NC(=O)NC4CC4)c(Cl)c3F)ccnc2cc1OC [IIIb-05] under target or system pancreatic cancer cell line (BXPC3): IC50 reported as > 10 µM

Lab note: compound COc1cc2nccc(Oc3c(F)cc(NC(=O)NC4CC4)c(Cl)c3F)c2cc1C(=O)N1CC[C@H](O)C1 [IIIb-26] tested on pancreatic cancer cell line (BXPC3); recorded IC50 was < 5 µM

Measured IC50 for this entry COc1cc2nccc(Oc3c(F)cc(NC(=O)NC4CC4)c(Cl)c3F)c2cc1C(=O)NC(CO)CO [IIIb-20] on pancreatic cancer cell line (BXPC3): > 10 µM

For COc1cc2nccc(Oc3c(F)cc(NC(=O)NC4CC4)c(Cl)c3F)c2cc1C(=O)NC(C)C [IIIb-04] on pancreatic cancer cell line (BXPC3), measured IC50 was > 10 µM
